test system: MS2 coat protein; experiment: apparent KD of MS2 coat protein, switch OFF state (with FMN for OFF switches, without FMN for ON switches); designed switch direction (-1 OFF switch, 1 ON switch): -1; higher = weaker reporter binding; conditions: FMN input: 0 or 200 uM; Eterna round: R93 (includes R88 designs)
Short version: apparent KD of MS2 coat protein at least 50 nM is true, less is false.

> print(dat)
                           primary.sequence  assigned.label
1  AGUUGGCGAGGAUAUACAUGAGGAUCACCCAUGUGAGAGAAAAAAAGGAGAAAAAAAAGUAGAAGGCGCUGACA [Ruth Fulton Benedict]            true
2  AAAAAGUCAGGAUAUACAUGAGGAUCACCCAUGUGAAAGAACGAAAAACGAAAAGCAAGUAGAAGGGACAAAAA [Ruby 78]           false
3  ACAAGAUCAGGAUAUACAUGAGGAUCACCCAUGUAAAUCAAAAAGGGACUUACUUAAUGUAGAAGGGAUCAUGU [EX3 279: Random 15]            true
4  AGUUGGCGAGGAUAUACAUGAGGAUCACCCAUGUGAAAAAAAAAAGUGAGAAAGAAAAGUAGAAGGCGCUGACA [Mat - Exclusion 3 - Lego mod - D89]            true
5  AGAAAGUCAGGAUAUCAGAAACUAGUCGAAACGACUAGAAAUGAGAAGGGACAUGAGGAUCACCCAUGUAAGAA [Ex4 sub 2]           false

Confirm if apparent KD of MS2 coat protein reported for the sequence AAGAAGGUAGGAUAUACAUGAGGAUCACCCAUGUAAAAGAAAGAAGGGAAAGAGAAAAGUAGAAGGACCAAGAA [Rudamon] is 50 nM or above.
true

Confirm if apparent KD of MS2 coat protein reported for the sequence GCUUGGGAAGGAUAUACAUGAGGAUCACCCAUGUGAGAGAAAAAAGUGAGAAAGAAAAGUAGAAGGUCUUGAGG [salish99-ex3-84] is 50 nM or above.
true

Confirm if apparent KD of MS2 coat protein reported for the sequence GAAAAACAUGAGGAUCACCCAUGUCAGGAUAUCGAAAAAUAAAUAAAAAUAAAAUAAACGAGAAGGGACAAAAG [Mat - Same state - Mayanna Mod - D111] is 50 nM or above.
true

Confirm if apparent KD of MS2 coat protein reported for the sequence AGUGAGUCAGGAUAUUCGUGAAGAAUAAAAGAAAUAACAACGAAGAAGGGACAUGAGGAUCACCCAUGUACACA [May 57] is 50 nM or above.
false

Confirm if apparent KD of MS2 coat protein reported for the sequence AAAAAACAUGAGGAUCACCCAUGUGAGGAUAUGGAAAAGAAAAGAAAAGAAAGAAGAACCAGAAGGCACAAGAA [Khafre] is 50 nM or above.
false

Confirm if apparent KD of MS2 coat protein reported for the sequence AAAAAGGCAGGAUAUACAAAACAGGGAAACCUGAAAAGGAAACAUGAGGAUCACCCAUGUAGAAGGGCCAAGAA [Clint Eastwood] is 50 nM or above.
false

###

system: K4 kissing-loop RNA reporter; assay: apparent KD of K4 kissing-loop reporter; higher = weaker reporter binding; conditions: Eterna round: R107; input ligand: none;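 further: bound reporter read as fluorescence of individual clusters on recovered sequencing chips by microscopy, with normalized cluster intensities fitted with a binding model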
Short version: apparent KD of K4 kissing-loop reporter at least 0.1 µM is t, less is f.

primary sequence	assigned label
UAGGAGUGAUGUUCCUAUAGCAGGUAGGAAGGAGCGCCCAUUUGGGCAGGUAGGUCGCCUACCGGCCCUAAGUUAAACCUUAGGC [Rariar]	f
GGGUUGAACUGAAGGAGCGAGAAAUAGAAAGUAAGAAGAUAAGCUAGUGAUGUUAGAAAUUCUCAGGUAGGUCGCAGUAAGAAUU [V3]	t
UGUUUUUACUGAAGGAGCGGCAAUUGAUACGUAGAUAUAGUGAUGUUAUAUAAGAUAGAGAGCCAGGUAGGUCGCAGAGUGUAUC [ExArgB.aB]	t
GCCGUAGAUUGAAGGAGCGUUCUUACUGAGUACGGCAACCGGAAGUGAUGUUUCCAGGUGGAACAGGUAGGUCGCAAUCUACGGC	t
UCUGUACCGGGAAGGAGCGUGAAUGAGAAUGGAUAUAGUGAUGUUAUGUAUACGAACGAAUCGCAGGUAGGUCGCCCGGAUCCCU [SSArgB.aA]	t
UGACUGGACUGAAGGAGCGCGAAACUCCUAGUGAUGUUAGGAUAACGAGACAAAGUCUCGACGCAGGUAGGUCGCAGUCUAGUCU	t

Confirm if apparent KD of K4 kissing-loop reporter reported for the sequence AAGGUAUCACCAACAUUGCAAGAAGGUGAUACCAGCAUCGAAAGAUGCCCUUGGCAGCACCAACUUGCAGUGAUGUUGCAAGUAA [(T)'-(H)'-(T1)-(T2)-(H1)-(H2)_Design8] is 0.1 µM or above.
t

Confirm if apparent KD of K4 kissing-loop reporter reported for the sequence AAAAGCCUACAGGAUACCAGCCGAAUACUAAAAGGCUGGAGUGAUGUUCCAGCUUGCCGCGGCCCUUGGCAGCCUAGCUGGGUGA [Soatriti] is 0.1 µM or above.
t

Confirm if apparent KD of K4 kissing-loop reporter reported for the sequence AGGGAUGAUGGAUAAAUAAACAAAAGGGAUACCAGUCAAAUAAUAGGCCCUUGGCAGCUUUAGAUCAGUGAUGUUGAAGAUAUUG [Theophylline A Same State; Euphoria Solution] is 0.1 µM or above.
f

Confirm if apparent KD of K4 kissing-loop reporter reported for the sequence GCAUCCAUGGCAGGAUAUAGGUUCGUGGAGUGAUGUUCCAUAGCCCGAGUGAUGUUCGUUAUCCGCCUAGAAGGGCCAUGGAUGC [whbob_Ex_FMNB__2th213] is 0.1 µM or above.
t

Confirm if apparent KD of K4 kissing-loop reporter reported for the sequence AUUAAUUUCAGAGGAUAUCGUUAUUUUAUUUAAUUUAUUCAUUUAUGCAGUGAUGUUGCUAUUAUUCGAGAAGGCUGAUUUAUAA [JR_ExcFMNB_Sub006] is 0.1 µM or above.
f

Confirm if apparent KD of K4 kissing-loop reporter reported for the sequence UUAGUCAGAUUAUUAUUAGCCUGCGAGACUAAGGAUAUCCGAAUUCGGAGAAGGUAGUGAUGUUACUUUGGCAGGCACUGACAUU [AK8 Exc FMN A] is 0.1 µM or above.
t

###

We begin with a simple list: items and their reported apparent KD of MS2 coat protein.
system: MS2 coat protein; assay: apparent KD of MS2 coat protein; higher = weaker reporter binding; details: Eterna round: R107; input ligand: tryptophan 2.4 mM
Number only, in nM; omit the unit.

Examples with their reported apparent KD of MS2 coat protein follow.
primary sequence	recorded metric	value reported
UAACAUGAGGAUCACCCAUGUAUAGUCGAUACCAGCUCAAGGAAGAGCCCUUGGCAGCGACACUGCCAAGCAUGGGUCAUGGCAG [(Ms2)-(Theo)-(T)'-(M)'-(T)''_Design5]	apparent KD of MS2 coat protein	19.5
UAUAUAUAUAUUGAUACCAGCAGAGAAAACGUAUAUCCUAACAUGAGGAUCACCCAUGUAUGCCCUUGGCAGCGAUAUAUAUAUA [8.B]	apparent KD of MS2 coat protein	24.9
CGCGGGCCACAUGAGGAUCACCCAUGUGAAGGAGCGGCGAAUAAGCCAGGUAGGUCGCGCAUGAAUAAAUCAUGUAGGUGGCGAA [XArg-A 10 V1&2]	apparent KD of MS2 coat protein	20.2
UUAUAUUAUCGAAGGAGCGUCACAUGAGGAUCACCCAUGUACAUGAGGAUCACCCAUGUGUGGCAGGUAGGUCGCGAUAUAUAAC [Exclusion Arginine B GF9]	apparent KD of MS2 coat protein	327

Identify measured apparent KD of MS2 coat protein corresponding to AAAAGUGGGUCAAUUAUUUAAACUUCAGAAGGAGCGUGAUGUUUCACAGGUAGGUCGCUGAUAACAUGAGGAUCACCCAUGUAUU [JR_ExcArginiA_Sub007]
47

Identify measured apparent KD of MS2 coat protein corresponding to GGUGGCGUGACGGAUACCAGCCACCACCGCAAGGCCACAUGAGGAUCACCCAUGUUGGGUGGCCCUUGGCAGCUGUCGUGCGGCG [#1 Same State - Theophylline B Attempt #20 (HarryS)]
341

###

We begin with a simple list: items and their reported apparent KD of MS2 coat protein.
tested on: MS2 coat protein; test: apparent KD of MS2 coat protein; designed switch direction (-1 OFF switch, 1 ON switch): -1; higher = weaker reporter binding; conditions: input ligand: FMN 200 uM
Number only, in µM; omit the unit.

Examples with their reported apparent KD of MS2 coat protein follow.
primary sequence	units label	apparent KD of MS2 coat protein
UACAUGAGGAUCACCCAUGUACCUUAUGUAAGAGUGGGAAGUAAGGAUAUAUAUGAAGGAAUGAAAUAGAAGGUGCAUAGAGAG [Default title] (Eterna round: R96, puzzle: Exclusion NG 3)	µM	0.121
GUCCUGGAAUAUCAGUCGCACAUGAGGAUCACCCAUGUCAUGGGUAGAUCAAUAAAUAAAGAUACUGCUCGUCUUAU [Cac sensor turnoff var1 sub3] (Eterna round: R97, puzzle: Sensor, turn-off variant 1)	µM	0.186
UUUCCUGCGCGGGUUUUUUACAUGAGGAUCACCCAUGUCCUCUGCUUGUCUUGUCUUGGGCUUGUUUCGGGUUCGGG [-18.4, -40.2 kcal, A 8%] (Eterna round: R97, puzzle: Sensor, turn-off variant 1)	µM	0.635
UAUGGUUAAGUCAGGAUAUGCACGAAGAGAUCAAUGCAGAAGGGACAUGAGGAUCACCCAUGUAAAGUCGUGUU [Ex4 #74] (Eterna round: R97, puzzle: Brourd's mod of Exclusion 4)	µM	0.0551
CCGCGACAUGAGGAUCACCCAUGUUAGGAUAUGUGCGCCAACCAAGGAAUUGGUAGGUACAGAAGGAGCUGGGU [Eternabot (L2) Solution 97] (Eterna round: R97, puzzle: Exclusion 1)	µM	0.149
CGGGCCGGCCUUCCGGCCGGCCCGACAUGAGGAUCACCCAUGUAGGAUAUCCCGGCUGCCGGCCGGGAGAAGGGCGUGCGUCCG [-50.4, -49.4 kcal, 14% A] (Eterna round: R96, puzzle: Exclusion NG 3)	µM	0.151
AUGCGACAUGAGGAUCACCCAUGUGAGGAUAUGCGAAUGCAUACUUCGGUGUGAUAGAGUAGAAGGCGCAGGUA [EX1 #17] (Eterna round: R97, puzzle: Exclusion 1)	µM	0.472
ACAUGAGGAUCACCCAUGUGCACGUAAUGGCUCAUGUAGAGUGAGGAUAUGCGUGGCGAACGCGCGCAGAAGGCACAAGACUGG [Deportation 18 - Jieux - Exclusion NG 3] (Eterna round: R96, puzzle: Exclusion NG 3)	µM	0.129

Moving on to the next sequence.
Answer with apparent KD of MS2 coat protein of GGCCGUAAUAAGGAUAUCACUAGCUGCGGCUAGUGAGAAGGUAUUACAUGAGGAUCACCCAUGUGGUCAGGCCA [E6/4-B3] (Eterna round: R97, puzzle: Exclusion 6) measured for MS2 coat protein.
1.06
